Tested on: Stimulated LTB4 Formation in Human Polymorphonuclear Leukocytes
Experiment: Inhibition of calcium ionophore-stimulated LTB4 formation in human polymorphonuclear leukocytes (PMNL)
Assay type: cell-based
Conditions: calcium ionophore 8.3 μM.3 μM, 15 min preincubation, 37° C, read-out: IC50, In Vitro Inhibitory Potencies Against Stimulated LTB4 Formation in Human Polymorphonuclear Leukocytes
property: IC50 (nM)

Some molecules with known IC50 results, for comparison:
1) CNOC(=O)C(CC1CCCCC1)c1ccc(OCc2ccc3ccccc3n2)cc1 (centres unmarked)	68
2) CN(O)C(=O)C(c1ccc(OCc2ccc3ccccc3n2)cc1)C1CCCCC1 (centres unmarked)	33
3) CN(O)C(=O)C(CC1CCCCC1)c1ccc(OCc2ccc3ccccc3n2)cc1 (centres unmarked)	64

A: CN(O)C(=O)CON=C(CCCc1ccc(Cl)cc1)c1ccc(OCc2ccc3ccccc3n2)cc1
B: CNOC(=O)C(c1ccc(OCc2ccc3ccccc3n2)cc1)C1CCCCC1 (centres unmarked)
Looking at recorded values for IC50, does A or B come in lower? Write down the label of the entry you select.
A

###

Tested on: Stimulated LTB4 Formation in Human Polymorphonuclear Leukocytes
Experiment: Inhibition of calcium ionophore-stimulated LTB4 formation in human polymorphonuclear leukocytes (PMNL)
Assay type: cell-based
Details: calcium ionophore 8.3 μM.3 μM, 15 min preincubation, 37° C, read-out: IC50, In Vitro Inhibitory Potencies Against Stimulated LTB4 Formation in Human Polymorphonuclear Leukocytes
property: IC50 (µM)

1: CN(O)C(=O)C=NOC(CCCc1ccc(Cl)cc1)c1ccc(OCc2ccc3ccccc3n2)cc1 (stereo not drawn)
2: CNOC(=O)C(CC1CCCCC1)c1ccc(OCc2ccccn2)cc1 (stereo not drawn)
3: CN(C)OC(=O)C(CC1CCCCC1)c1ccc(OCc2ccc3ccccc3n2)cc1 (stereo not drawn)
Rank the items above by IC50, largest value first. Sort the labels as requested; that list is your answer.
2, 1, 3
(2: 1.65 µM, 1: 0.132 µM, 3: 0.045 µM)

Where do the numbers come from? From patent US5358955A.
